Tested on: HCC1599
Assay: drug sensitivity score (DSS), CellTox Green (DSS (AUC-based score)); higher = stronger drug effect (viability inhibition or cytotoxicity); extreme values may be limits of the assay
Conditions: incubation time: 72 h
resultType: drug sensitivity score
Format: numeric value only, no unit, no commentary.

| compound | drug sensitivity score |
| --- | --- |
| O=C1CN2Cc3c(ccc(Cl)c3Cl)N=C2N1 [Anagrelide] | 0 |
| CC(C)(C)c1cnc(CSc2cnc(NC(=O)C3CCNCC3)s2)o1 | 0 |
| C[C@]12CC[C@@H]3c4ccc(OC(=O)N(CCCl)CCCl)cc4CC[C@H]3[C@@H]1CC[C@@H]2O | 0 |
| CC(=O)O[C@@]12CO[C@@H]1C[C@H](O)[C@@]1(C)C(=O)[C@H](O)C3=C(C)[C@@H](OC(=O)[C@H](O)[C@@H](NC(=O)OC(C)(C)C)c4ccccc4)C[C@@](O)([C@@H](OC(=O)c4ccccc4)[C@H]21)C3(C)C | 0 |
| CC1(C)CCC(CN2CCN(c3ccc(C(=O)NS(=O)(=O)c4ccc(NCC5CCOCC5)c([N+](=O)[O-])c4)c(Oc4cnc5[nH]ccc5c4)c3)CC2)=C(c2ccc(Cl)cc2)C1 | 0 |

The record that follows has no drug sensitivity score shown yet.
Lookup: Request the reported drug sensitivity score associated with Cn1cc(C2=Nc3cc(NC(=O)C(N)C4CCCCC4)cc4c3C2=CNNC4=O)cn1 (stereo unspecified)
Found: 0
